TARGET ENTITY: PKC-ε (Homo sapiens, UniProt Q02156)
Sequence (Q02156 whole entry): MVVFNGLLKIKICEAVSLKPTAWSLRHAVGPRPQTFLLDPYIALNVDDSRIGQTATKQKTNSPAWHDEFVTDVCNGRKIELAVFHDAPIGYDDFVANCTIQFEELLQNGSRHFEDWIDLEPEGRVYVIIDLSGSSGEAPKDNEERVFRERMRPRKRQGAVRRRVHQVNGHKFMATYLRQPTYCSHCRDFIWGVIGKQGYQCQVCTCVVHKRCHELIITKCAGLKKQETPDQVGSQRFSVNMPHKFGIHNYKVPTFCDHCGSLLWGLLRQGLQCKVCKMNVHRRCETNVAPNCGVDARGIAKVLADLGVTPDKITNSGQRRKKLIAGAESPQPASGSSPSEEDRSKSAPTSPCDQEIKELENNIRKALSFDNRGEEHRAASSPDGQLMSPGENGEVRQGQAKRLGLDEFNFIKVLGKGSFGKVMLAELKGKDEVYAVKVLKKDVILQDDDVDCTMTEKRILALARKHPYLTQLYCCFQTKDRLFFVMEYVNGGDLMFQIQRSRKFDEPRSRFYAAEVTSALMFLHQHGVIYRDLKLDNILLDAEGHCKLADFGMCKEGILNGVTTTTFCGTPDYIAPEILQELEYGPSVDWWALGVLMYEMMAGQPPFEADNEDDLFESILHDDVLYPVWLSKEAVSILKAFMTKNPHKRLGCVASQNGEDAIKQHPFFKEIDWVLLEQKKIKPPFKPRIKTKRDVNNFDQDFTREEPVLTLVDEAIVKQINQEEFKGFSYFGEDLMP
TEST: Z'-LYTE kinase activity assay
MEASUREMENT CONDITIONS: ATP at Kmapp, 2 μM peptide substrate; read-out: IC50 for novel PKC isoforms, PKC-ε
ENDPOINT NAME: pIC50
Just the number, please; pIC50 means minus log10 of the concentration in mol/L.

Would you mind telling me what pIC50 value was observed for `CN(C)CCCn1cc(C2=C(c3c[nH]c4ccccc34)C(=O)NC2=O)c2ccccc21` ?
7.17

---

Consider the following molecules and their measured pIC50 readings.
TARGET ENTITY: PKC-β2 (Homo sapiens, UniProt P05771)
Sequence (P05771 1-673 isoform P05771-2): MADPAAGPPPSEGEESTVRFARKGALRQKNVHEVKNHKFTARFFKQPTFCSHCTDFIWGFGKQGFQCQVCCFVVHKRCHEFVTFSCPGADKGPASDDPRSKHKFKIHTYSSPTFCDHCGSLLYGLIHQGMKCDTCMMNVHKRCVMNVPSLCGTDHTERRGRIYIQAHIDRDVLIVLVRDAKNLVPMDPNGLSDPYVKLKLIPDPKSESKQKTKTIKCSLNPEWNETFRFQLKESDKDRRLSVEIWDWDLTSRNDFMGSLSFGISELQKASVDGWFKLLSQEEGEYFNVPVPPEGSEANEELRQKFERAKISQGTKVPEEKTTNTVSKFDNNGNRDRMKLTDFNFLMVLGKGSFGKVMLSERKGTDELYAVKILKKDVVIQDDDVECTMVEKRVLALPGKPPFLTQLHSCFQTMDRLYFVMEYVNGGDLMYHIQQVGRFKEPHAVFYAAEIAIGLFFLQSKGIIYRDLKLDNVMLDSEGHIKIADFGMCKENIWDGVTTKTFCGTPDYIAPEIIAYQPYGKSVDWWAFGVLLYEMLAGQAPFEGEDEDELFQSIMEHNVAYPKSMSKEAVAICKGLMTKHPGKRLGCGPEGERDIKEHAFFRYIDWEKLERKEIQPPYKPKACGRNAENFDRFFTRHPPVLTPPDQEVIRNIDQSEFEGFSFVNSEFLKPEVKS
TEST: Z'-LYTE kinase activity assay
MEASUREMENT CONDITIONS: ATP at Kmapp, 2 μM peptide substrate; read-out: IC50 for classical PKC isoforms, PKC-β2
Just the number, please; pIC50 means minus log10 of the concentration in mol/L.

> print(dat)
                         chemical.structure  endpoint.result
1  Cn1c2ccccc2c2c3c(c4c5ccccc5n(CCC#N)c4c21)CNC3=O             6.74

With those in mind, consider the next molecule.
Would you mind telling me what pIC50 value was observed for `CN(C)CCCn1cc(C2=C(c3c[nH]c4ccccc34)C(=O)NC2=O)c2ccccc21` ?
9.48
